I'd appreciate it if you could supply melting point values for the items below.
Number only, in °C; omit the unit.

For record CC(=O)CN1CCC(CCN2CCN(c3cc(Cl)cc(C(F)(F)F)c3)CC2)CC1.Cl.Cl the listed melting point is 289

For record CCCC(=O)CN1CCC(CCN2CCN(c3cccc4c3CCC4)CC2)CC1.Cl.Cl the listed melting point is 270

For record CNC(=O)CC1CCC(CCN2CCN(c3cccc(C(F)(F)F)c3)CC2)CC1 (mixture of isomers) the listed melting point is 196

For record Cc1ccc(F)cc1N1CCN(CC[C@H]2CC[C@H](NC(=O)CC#N)CC2)CC1 the listed melting point is 159

For record N#CCCCC(=O)N[C@H]1CC[C@H](CCN2CCN(c3cc(Cl)c(Cl)cc3Cl)CC2)CC1 the listed melting point is 179

For record N#CCC(=O)N[C@H]1CC[C@H](CCN2CCN(c3cc(C(F)(F)F)c(Cl)cc3Cl)CC2)CC1 the listed melting point is 193

For record COCCCC(=O)N[C@H]1CC[C@H](CCN2CCN(c3cc(F)cc(C(F)(F)F)c3)CC2)CC1 the listed melting point is 177

###

I'd appreciate it if you could supply melting point values for the items below.
Number only, in °C; omit the unit.

For record CCOC(=O)CN1CCC(CCN2CCN(c3cccc(C(F)(F)F)c3)CC2)CC1.Cl.Cl the listed melting point is 240

For record COc1ccc(C)c(N2CCN(CCC3CCN(CC(C)=O)CC3)CC2)c1.Cl.Cl the listed melting point is 283

For record Cc1ccccc1C1=CCN(CC[C@H]2CC[C@H](NC(=O)CCCC#N)CC2)CC1 the listed melting point is 140

For record CC(=O)N1CCC(C(=O)N[C@H]2CC[C@H](CCN3CCN(c4cccc(C(F)(F)F)c4)CC3)CC2)CC1 the listed melting point is 173

For record Cc1ccc(C)c(N2CCN(CC[C@H]3CC[C@H](NC(=O)CC#N)CC3)CC2)c1 the listed melting point is 184

For record N#CCC(=O)N[C@H]1CC[C@H](CCN2CCN(c3ccc(C#N)cc3)CC2)CC1 the listed melting point is 228

For record N#CCCC(=O)N[C@H]1CC[C@H](CCN2CCN(c3cccc(C(F)(F)F)c3F)CC2)CC1 the listed melting point is 153

For record CC(=O)CN1CCC(CCN2CCN(c3cccc(Cl)c3F)CC2)CC1.Cl.Cl the listed melting point is 270

For record Cl.N#CCC(=O)N1CCC(CCN2CCN(c3cccc4c3CCC4)CC2)CC1 the listed melting point is 210

For record CSCC(=O)N[C@H]1CC[C@H](CCN2CCN(c3cccc(C(F)(F)F)c3)CC2)CC1 the listed melting point is 128

For record CCOCC(=O)N[C@H]1CC[C@H](CCN2CCN(c3ccccc3C)CC2)CC1 the listed melting point is 101

For record N#CCCC(=O)N[C@H]1CC[C@H](CCN2CCN(c3ccccc3F)CC2)CC1 the listed melting point is 164

For record O=C(N[C@H]1CC[C@H](CCN2CCN(c3ccc(Cl)c(Cl)c3)CC2)CC1)C1=CCCC1 the listed melting point is 202

For record O=C(N[C@H]1CC[C@H](CCN2CCN(c3ccc(F)cc3F)CC2)CC1)C1=CCCC1 the listed melting point is 205

For record N#CCCCC(=O)NC1CCC(CCN2CCN(c3cccc(-c4ccccc4)c3)CC2)CC1 (stereo not shown) the listed melting point is 119

For record N#CCC(=O)N[C@H]1CC[C@H](CCN2CCN(c3cccc(C(F)(F)F)c3C#N)CC2)CC1 the listed melting point is 222

For record CC(=O)CN1CCC(CCN2CCN(c3cccc(C(F)(F)F)c3C)CC2)CC1.Cl.Cl the listed melting point is 300

For record CC(=O)CN1CCC(CCN2CCN(c3ccc4c(c3)CCCCC4)CC2)CC1 the listed melting point is 98

For record N#CCCCC(=O)N[C@H]1CC[C@H](CCN2CCN(c3cc(Cl)cc(Cl)c3)CC2)CC1 the listed melting point is 179

For record N#CCCCC(=O)N[C@H]1CC[C@H](CCN2CCN(c3cccc(Cl)c3F)CC2)CC1 the listed melting point is 186

For record O=C(N[C@H]1CC[C@H](CCN2CCN(c3ccc(F)cc3F)CC2)CC1)C1=COCC1 the listed melting point is 192

For record N#CCCCC(=O)N[C@H]1CC[C@H](CCN2CCN(c3cccc(C(F)F)c3)CC2)CC1 the listed melting point is 155

For record COCCCC(=O)N[C@H]1CC[C@H](CCN2CC=C(c3cc(C(F)(F)F)ccc3F)CC2)CC1 the listed melting point is 164

For record CC(C)C(O)c1cccc(N2CCN(CC[C@H]3CC[C@H](NC(=O)CC#N)CC3)CC2)c1 (stereo partly shown) the listed melting point is 119

For record Cl.N#CCC(=O)N[C@H]1CC[C@H](CCN2CCN(c3ccccc3)CC2)CC1 the listed melting point is 243

For record O=C(N[C@H]1CC[C@H](CCN2CC=C(c3ccc(F)cc3F)CC2)CC1)C1=CCCC1 the listed melting point is 166

For record CCOCC(=O)N[C@H]1CC[C@H](CCN2CCN(c3ccc(C)c(C)c3)CC2)CC1 the listed melting point is 122

For record Cc1cccc(N2CCN(CC[C@H]3CC[C@H](NC(=O)CC#N)CC3)CC2)c1C#N the listed melting point is 221

For record N#CCCC(=O)N[C@H]1CC[C@H](CCN2CCN(c3cccc(F)c3)CC2)CC1 the listed melting point is 186

For record CC(=O)c1cccc(N2CCN(CC[C@H]3CC[C@H](NC(=O)CC#N)CC3)CC2)c1 the listed melting point is 160

The measurements presented in this section are drawn from patent US8802678B2.
